test system: A. fumigatus 210; assay: Minimum inhibitory concentration, YAG medium; type: cell-based, Aspergillus fumigatus; settings: banded MIC grade
readout kind: MIC grade, A. FUMIGATUS 210, YAG media

INSERT INTO results (compound_string, readout_kind, endpoint_value) VALUES
  ('Cc1ccc(COCCC2=NN=C(N)SC2)cc1', 'MIC grade, A. FUMIGATUS 210, YAG media', '4 (4: <0.2 mg/L)'),
  ('NC1=NN=C(CCCCOc2ccccc2)CS1', 'MIC grade, A. FUMIGATUS 210, YAG media', '3 (3: 0.2-1 mg/L)'),
  ('COc1ccc(CCCOCCC2=NN=C(N)SC2)cc1', 'MIC grade, A. FUMIGATUS 210, YAG media', '2 (2: 1-5 mg/L)'),
  ('NC1=NN=C(CCCCOCc2ccccc2CCc2ccccc2)CS1', 'MIC grade, A. FUMIGATUS 210, YAG media', '1 (1: ≥5 mg/L)'),
  ('NC1=NN=C(CCOc2ccc(Br)cc2)CS1', 'MIC grade, A. FUMIGATUS 210, YAG media', '4 (4: <0.2 mg/L)'),
  ('NC1=NN=C(CCCCOCc2cc(F)ccc2F)CS1', 'MIC grade, A. FUMIGATUS 210, YAG media', '4 (4: <0.2 mg/L)'),
  ('CCCCOc1ccc(C2=NN=C(N)SC2)cc1', 'MIC grade, A. FUMIGATUS 210, YAG media', '3 (3: 0.2-1 mg/L)');

###

We begin with a simple list: items and their reported MIC grade, C. ALBICANS, RPMI media.
tested on: C. albicans; test: Minimum inhibitory concentration, RPMI medium; format: cell-based; settings: banded MIC grade
readout kind: MIC grade, C. ALBICANS, RPMI media

INSERT INTO results (compound_string, endpoint_value) VALUES
  ('NC1=NN=C(CCCCOCc2ccccc2)CS1', '4 (4: <1 mg/L)'),
  ('COc1ccc(COCCC2=NN=C(N)SC2)cc1', '2 (2: 5-20 mg/L)'),
  ('NC1=NN=C(CCCCOCc2ccccc2CCc2ccccc2)CS1', '2 (2: 5-20 mg/L)'),
  ('COCCCCCC1=NN=C(N)SC1', '4 (4: <1 mg/L)'),
  ('NC1=NN=C(CCCCOCc2ccc(Cl)cc2)CS1', '4 (4: <1 mg/L)'),
  ('Cc1ccc(OCCC2=NN=C(N)SC2)cc1', '1 (1: ≥20 mg/L)'),
  ('NC1=NN=C(CCCCCOc2ccccc2)CS1', '4 (4: <1 mg/L)'),
  ('COCC1=NN=C(N)SC1', '2 (2: 5-20 mg/L)'),
  ('Cc1cccc(COCCCCC2=NN=C(N)SC2)c1', '3 (3: 1-5 mg/L)'),
  ('CCOC(=O)c1ccc(C2=CSC(N)=NN2)cc1', '3 (3: 1-5 mg/L)'),
  ('CCCCOC(=O)c1ccc(C2=NN=C(N)SC2)cc1', '1 (1: ≥20 mg/L)'),
  ('NC1=NN=C(CCCCOCc2c(F)cccc2Cl)CS1', '2 (2: 5-20 mg/L)'),
  ('NC1=NN=C(CCCCc2ccccc2)CS1', '2 (2: 5-20 mg/L)'),
  ('NC1=NN=C(CCOCCCc2ccccc2)CS1', '4 (4: <1 mg/L)');
